# Test system: CCRF-CEM leukemia
# Procedure Text: NCI-60 one-dose screen, 48 h (100 = growth as untreated, 0 = no growth, -100 = all killed)
# Experimental Conditions: 10 µM unless noted
Compounds without any hit were thinned out: in the full panel of roughly 83,000, 20% have a hit. Where a SMILES comes first, the peptide text is derived from it. [ ]: non-standard residue; d: D form. ξ: configuration not given here. ξD = NC(CC(=O)O)C(=O)O

| Compound | Unit Tag | growth |
| --- | --- | --- |
| Cc1cc(Br)c2nsnc2c1[N+](=O)[O-] | % | 20.1 |
| CN(C)CC(C)(CN(C)C)C(=O)/C=C/c1c(Cl)cccc1Cl | % | -4.65 |
| O=[N+]([O-])CC(O)c1ccccc1 (configuration not stated) | % | 104 |
| NCC(=O)NC(CC(=O)O)C(=O)O (configuration not stated) (H-Gly-[ξD]-OH) | % | 79.3 |
| O=C1C=CC(=O)N1c1ccc(O)cc1 | % | 81 |
| CCSc1nc2ccccc2o1 | % | 97.5 |
| Cc1nc(Sc2nc3ccc([N+](=O)[O-])cc3s2)sc1C | % | -13.5 |
| Cc1onc(-c2ccccc2)c1C(=O)N/N=C/c1cc(Cl)cc(Cl)c1O | % | 21.9 |
| CCOc1ccc2c(c1)/C(=C\C=C\C1CC(C)C3CC(OCC)CCC3N1CC)CC(C)N2CC (configuration not stated) | % | -40.3 |
| Cc1c(O)ccc(SC#N)c1C | % | 30.7 |
| O=C(c1ccccc1)C(O)C(Br)(CBr)c1ccccc1 (configuration not stated) | % | 50 |
| Cc1cc(C)c([I+]c2c(C)cc(C)cc2C)c(C)c1 | % | -29.5 |
